Test system: Chinese Hamster Ovary (CHO) cells
assay_remarks: MTT in vitro cytotoxicity assay
Type: cell-based
measurement_setup: triplicate on one occasion
Returns: string. Value is 1 if measured IC50 is below 50 µM, and -1 if it is greater than or equal to it.

The examples below pair each entry with its known result.
compound="O=C(NO)c1ccc(CN2c3cc(C(F)(F)F)ccc3SCC3CCCC32)cc1 (racemic)" measured_target="Chinese Hamster Ovary (CHO) cells" class_label=-1
compound="O=C(NO)c1ccc(CN2c3ccccc3SCC3CCCC32)cc1 (stereo not shown)" measured_target="Chinese Hamster Ovary (CHO) cells" class_label=-1
compound=O=C(NO)c1ccc(NCc2csc3cc(Br)ccc23)cc1 measured_target="Chinese Hamster Ovary (CHO) cells" class_label=1
compound="O=C(NO)c1ccc(CN2c3ccccc3SCC3CCCCC32)cc1 (stereo not shown) [Compound 3h]" measured_target="Chinese Hamster Ovary (CHO) cells" class_label=-1

stdin: Lab log: compare recorded IC50 with 50 µM; is it strictly lower for `O=C(NO)c1ccc(NCc2csc3ccccc23)cc1` ?
stdout: 1

stdin: Hi there! Is IC50 for O=C(NO)c1ccc(CN2c3cc(Cl)ccc3SCC3CCCC32)cc1 (racemic) [Compound 3b] below 50 µM, do you know?
stdout: 1

----------
Test system: Chinese Hamster Ovary (CHO) cells
assay_remarks: MTT in vitro cytotoxicity assay
Assay type: cell-based
measurement_setup: Cricetulus griseus, triplicate on one occasion
observed_property: IC50 (nM)
Use nM as the unit, but write only the number.

stdin: # query: IC50 of entry CC[C@H]1CN2CCc3cc(OC)c(OC)cc3[C@@H]2C[C@@H]1C[C@H]1NCCc2cc(OC)c(OC)cc21 [Emetine, reference compound]
stdout: 112

----------
# key: entry, value: IC50
System: Chinese Hamster Ovary (CHO) cells
assay_remarks: MTT in vitro cytotoxicity assay
Type: cell-based
measurement_setup: triplicate on one occasion
Could you give me the number in µM? Just the number is fine.

# example entries with known answers
compound="O=C(NO)c1ccc(CN2c3cc(C(F)(F)F)ccc3S(=O)(=O)CC3CCCC32)cc1 (racemic)" measured_result=56.8
compound=O=C(NO)c1cccc(Cn2c3c(c4cc(F)ccc42)CSCC3)c1 measured_result=48.1
compound="O=C(NO)c1ccc(CN2c3ccccc3SCC3CCCCC32)cc1 (stereo not shown) [Compound 3j]" measured_result=61.7

Below: the item to evaluate.
stdin: So what's the measured IC50 for this one? O=C(NO)c1ccc(CN2c3cc(Cl)ccc3S(=O)(=O)CC3CCCC32)cc1 (racemic)
stdout: 35.4

----------
Tested on: Chinese Hamster Ovary (CHO) cells
assay_remarks: MTT in vitro cytotoxicity assay
Assay type: cell-based
measurement_setup: triplicate on one occasion
Protocol: Test samples were screened for in vitro cytotoxicity against a mammalian cell-line, Chinese Hamster Ovary (CHO), using the 3-(4,5-dimethylthiazol-2-yl)-2,5-diphenyltetrazoliumbromide (MTT)-assay. The MTT-assay is used as a colorimetric assay for cellular growth and survival, and compares well with other available assays. The tetrazolium salt MTT was used to measure all growth and chemosensitivity. The test samples were tested in triplicate on one occasion. […]
Please assign f whenever IC50 is at or above 100 µM, and t whenever it is below.

compound=O=C(NO)c1ccc(NCc2csc3ccc(Br)cc23)cc1 measured_target="Chinese Hamster Ovary (CHO) cells" class_label=t
compound="O=C(NO)c1ccc(CN2c3ccccc3[S+]([O-])CC3CCCC32)cc1 (stereo not drawn)" measured_target="Chinese Hamster Ovary (CHO) cells" class_label=f
compound=O=C(NO)c1cccc(Cn2c3c(c4ccccc42)CSCC3)c1 measured_target="Chinese Hamster Ovary (CHO) cells" class_label=f
compound=O=C(NO)c1ccc(Cn2c3c(c4cc(F)ccc42)CSCC3)cc1 measured_target="Chinese Hamster Ovary (CHO) cells" class_label=f
compound="O=C(NO)c1ccc(CN2c3ccccc3S(=O)(=O)CC3CCCC32)cc1 (stereo not drawn)" measured_target="Chinese Hamster Ovary (CHO) cells" class_label=f
compound="O=C(NO)c1ccc(Cn2c3c(c4ccccc42)C[S+]([O-])CC3)cc1 (racemic)" measured_target="Chinese Hamster Ovary (CHO) cells" class_label=f
compound=O=C(NO)c1ccc(NCc2csc3cc(-c4ccccc4)ccc23)cc1 measured_target="Chinese Hamster Ovary (CHO) cells" class_label=t
compound=O=C(NO)c1ccc(Cn2c3c(c4cc(Br)ccc42)CS(=O)(=O)CC3)cc1 measured_target="Chinese Hamster Ovary (CHO) cells" class_label=f

Could you now look at the following compound, please?
stdin: Just wondering, is IC50 of O=C(NO)c1ccc(Cn2c3c(c4cc(F)ccc42)C[S+]([O-])CC3)cc1 (racemic) below 100 µM?
stdout: f
